The measured values listed here are drawn from patent US20190270733A1.

- assay-remarks: Mouse plasma PK (IV and PO dosing)
- Assay type: in vivo, Male C57 Bl/6J mice
- recorded-conditions: male, C57 Bl/6J, mouse, plasma, iv, 1 mg/kg, IV 1 mg/kg, mouse plasma, individual mice; read-out: T1/2 (converted)
experimental-endpoint: half-life (min)
Answers are plain numbers, in min.

Tell me the measured half-life of Nc1ccc(-c2cccs2)cc1NC(=O)c1ccc2c(c1)CCC(=O)N2 [Example 5] , please. 80.4

* * *

- assay-remarks: Mouse plasma PK (IV and PO dosing)
- Assay type: in vivo, Male C57 Bl/6J mice
- recorded-conditions: male, C57 Bl/6J, mouse, plasma, po, 7 mg/kg, PO dosing, mouse plasma; read-out: half-life (converted)
experimental-endpoint: half-life
Give the number first and the unit second.

Tell me the measured half-life of Nc1ccc(-c2cccs2)cc1NC(=O)c1ccc2c(c1)CCC(=O)N2 [Example 5] , please. 2.7 h
